Target: Fyn (UniProt P06241)
Sequence (P06241 whole entry, looked up): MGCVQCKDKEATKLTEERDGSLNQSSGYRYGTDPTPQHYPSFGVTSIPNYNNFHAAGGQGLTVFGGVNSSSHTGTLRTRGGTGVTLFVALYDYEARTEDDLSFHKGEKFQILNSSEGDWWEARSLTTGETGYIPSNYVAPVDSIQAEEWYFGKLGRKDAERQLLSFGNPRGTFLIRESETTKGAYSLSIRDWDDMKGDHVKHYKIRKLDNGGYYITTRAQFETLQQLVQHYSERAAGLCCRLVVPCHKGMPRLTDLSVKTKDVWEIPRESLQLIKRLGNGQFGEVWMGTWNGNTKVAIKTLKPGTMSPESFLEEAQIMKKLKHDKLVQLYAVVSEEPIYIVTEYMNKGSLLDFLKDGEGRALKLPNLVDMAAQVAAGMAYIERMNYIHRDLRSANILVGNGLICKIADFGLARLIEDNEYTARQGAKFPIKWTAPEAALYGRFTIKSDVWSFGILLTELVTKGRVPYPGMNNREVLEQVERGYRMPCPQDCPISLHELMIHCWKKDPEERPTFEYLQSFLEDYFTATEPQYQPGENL
Experiment: phosphorylation enrichment, bacterial display (enrichment ratio); higher = better substrate or ligand; peptides without Tyr show the background;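 also: 11-residue human phosphosite peptides and single-mutation variants displayed on the E. coli surface, counted by deep sequencing, each peptide's frequency after selection divided by its frequency in the unselected input library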;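 also: frequency after pTyr selection over input frequency; kinase dosed for 20-30% of maximal phosphorylation in three min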
Returns Fulfilled if the recorded phosphorylation enrichment is greater than or equal to 0.5, and Not fulfilled otherwise.

>  <Sequence Code>
VVTFSYKPPGN [RBL2_Y544]

>  <Category Label>
Not fulfilled

$$$$
>  <Sequence Code>
FADTAYNYRHG [PAH_Y166_I164T]

>  <Category Label>
Not fulfilled

$$$$
>  <Sequence Code>
DNAFQYMLTDR [MYH7_Y164_YF]

>  <Category Label>
Not fulfilled

$$$$
>  <Sequence Code>
GDFLSYREFHL [ERBIN_Y1107_S1112L_YF]

>  <Category Label>
Not fulfilled

$$$$
>  <Sequence Code>
VEYAKYGSLRG [RET_Y809]

>  <Category Label>
Fulfilled

$$$$
>  <Sequence Code>
LFDHIYTTQSD [RET_Y928]

>  <Category Label>
Fulfilled

$$$$

* * *

Molecular target: EPHB1 (UniProt P54762)
Sequence (P54762 whole entry, looked up): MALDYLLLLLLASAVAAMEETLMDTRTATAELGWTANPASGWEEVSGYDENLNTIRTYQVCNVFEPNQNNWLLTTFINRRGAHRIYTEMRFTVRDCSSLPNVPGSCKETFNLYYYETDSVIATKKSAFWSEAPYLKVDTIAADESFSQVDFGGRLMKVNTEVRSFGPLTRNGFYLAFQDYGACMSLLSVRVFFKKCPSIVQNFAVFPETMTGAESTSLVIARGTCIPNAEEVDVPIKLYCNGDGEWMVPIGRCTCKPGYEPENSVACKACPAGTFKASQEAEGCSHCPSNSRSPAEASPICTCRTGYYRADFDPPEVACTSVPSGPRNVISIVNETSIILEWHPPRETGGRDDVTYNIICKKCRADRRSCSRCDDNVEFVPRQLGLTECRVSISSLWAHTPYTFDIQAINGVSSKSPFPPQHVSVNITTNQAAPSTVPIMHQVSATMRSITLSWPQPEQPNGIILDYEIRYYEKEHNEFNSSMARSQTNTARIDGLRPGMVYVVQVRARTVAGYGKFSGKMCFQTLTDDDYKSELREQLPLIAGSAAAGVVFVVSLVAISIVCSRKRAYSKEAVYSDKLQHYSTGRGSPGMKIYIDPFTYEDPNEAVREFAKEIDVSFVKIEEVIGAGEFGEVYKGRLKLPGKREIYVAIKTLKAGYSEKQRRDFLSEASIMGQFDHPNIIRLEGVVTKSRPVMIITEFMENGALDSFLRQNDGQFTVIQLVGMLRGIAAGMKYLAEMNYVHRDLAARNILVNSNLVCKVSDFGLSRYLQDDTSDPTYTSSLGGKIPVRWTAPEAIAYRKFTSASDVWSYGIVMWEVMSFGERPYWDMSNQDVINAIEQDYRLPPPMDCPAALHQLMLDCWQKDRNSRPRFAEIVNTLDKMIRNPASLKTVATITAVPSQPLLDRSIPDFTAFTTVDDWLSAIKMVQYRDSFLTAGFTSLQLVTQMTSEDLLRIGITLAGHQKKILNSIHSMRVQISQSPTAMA
Assay: phosphorylation enrichment, bacterial display (enrichment ratio); higher = better substrate or ligand; peptides without Tyr show the background

>  <Sequence Code>
DNAYQYMLTDR [MYH7_Y164]

>  <phosphorylation enrichment>
0.61

$$$$
>  <Sequence Code>
VEDQFYCVDCF [FHL1_Y208_YF]

>  <phosphorylation enrichment>
0.748

$$$$
>  <Sequence Code>
HVPEEYKPKQG [SAXO2_Y37]

>  <phosphorylation enrichment>
0.493

$$$$
>  <Sequence Code>
QMQAAYQKAVA [HBD_Y131_V134A]

>  <phosphorylation enrichment>
0.583

$$$$
>  <Sequence Code>
IGSQRYKLGVR [RB1_Y446]

>  <phosphorylation enrichment>
0.336

$$$$
>  <Sequence Code>
EDSEFYKAFEE [CASQ2_Y179_YF]

>  <phosphorylation enrichment>
0.534

$$$$

* * *

Biological target: MERTK (UniProt Q12866)
Sequence (Q12866 whole entry, looked up): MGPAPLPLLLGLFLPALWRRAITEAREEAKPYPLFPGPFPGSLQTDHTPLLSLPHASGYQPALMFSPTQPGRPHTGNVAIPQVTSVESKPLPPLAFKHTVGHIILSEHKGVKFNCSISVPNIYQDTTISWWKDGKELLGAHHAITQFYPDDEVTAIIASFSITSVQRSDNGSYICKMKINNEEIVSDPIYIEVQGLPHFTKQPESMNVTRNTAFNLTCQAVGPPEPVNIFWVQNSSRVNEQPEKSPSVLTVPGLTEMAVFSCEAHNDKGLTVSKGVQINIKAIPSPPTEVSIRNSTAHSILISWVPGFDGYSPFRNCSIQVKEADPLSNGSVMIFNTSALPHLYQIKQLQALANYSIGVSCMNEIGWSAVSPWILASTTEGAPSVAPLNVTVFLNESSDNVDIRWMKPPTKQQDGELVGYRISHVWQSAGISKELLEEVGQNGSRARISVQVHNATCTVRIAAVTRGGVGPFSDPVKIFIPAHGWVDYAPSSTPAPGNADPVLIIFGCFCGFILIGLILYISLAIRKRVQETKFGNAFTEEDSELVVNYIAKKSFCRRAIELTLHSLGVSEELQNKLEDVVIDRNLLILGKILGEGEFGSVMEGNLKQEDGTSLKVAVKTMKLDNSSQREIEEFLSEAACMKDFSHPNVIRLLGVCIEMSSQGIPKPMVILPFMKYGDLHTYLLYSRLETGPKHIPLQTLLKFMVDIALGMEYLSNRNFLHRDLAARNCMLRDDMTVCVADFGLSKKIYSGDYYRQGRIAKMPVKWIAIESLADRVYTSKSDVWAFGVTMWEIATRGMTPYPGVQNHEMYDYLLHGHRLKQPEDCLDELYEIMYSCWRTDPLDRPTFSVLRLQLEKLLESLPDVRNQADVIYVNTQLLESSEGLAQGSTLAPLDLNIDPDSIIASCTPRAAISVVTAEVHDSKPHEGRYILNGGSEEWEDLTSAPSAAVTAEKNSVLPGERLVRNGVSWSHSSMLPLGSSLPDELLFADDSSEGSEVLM
Assay: phosphorylation enrichment, bacterial display (enrichment ratio); higher = better substrate or ligand; peptides without Tyr show the background

>  <Sequence Code>
NPETCYQRLKK [TK2_Y190]

>  <phosphorylation enrichment>
0.469

$$$$
>  <Sequence Code>
PLDGEYFTLPI [TP53_Y327_Q331P]

>  <phosphorylation enrichment>
3.81

$$$$
>  <Sequence Code>
FRPPYYHRDCM [HGD_Y334_N337D]

>  <phosphorylation enrichment>
0.444

$$$$
>  <Sequence Code>
EKKDVYKTGEQ [CFH_Y1008_A1010T]

>  <phosphorylation enrichment>
0.382

$$$$
>  <Sequence Code>
DPGVSYCTREE [PDHA1_Y301_R302C]

>  <phosphorylation enrichment>
0.451

$$$$
>  <Sequence Code>
TSPKSYPSQKH [CAP2_Y316]

>  <phosphorylation enrichment>
0.44

$$$$
>  <Sequence Code>
PPGRSYSPYDY [TNS1_Y793]

>  <phosphorylation enrichment>
0.653

$$$$
>  <Sequence Code>
ADYPDCKYRPR [SOX11_Y116_Y116C]

>  <phosphorylation enrichment>
0.41

$$$$
>  <Sequence Code>
EMFNPCYGLFE [NEDD4L_Y679_Y679C]

>  <phosphorylation enrichment>
0.765

$$$$
>  <Sequence Code>
VKMLPYTEVTR [GDI1_Y93_L92P]

>  <phosphorylation enrichment>
0.494

$$$$
>  <Sequence Code>
VSSPKYGSNDE [TMCC2_Y473_D476N]

>  <phosphorylation enrichment>
0.454

$$$$
>  <Sequence Code>
MEIHAYRKLSE [LMNA_Y376_L380S]

>  <phosphorylation enrichment>
0.342

$$$$
>  <Sequence Code>
PLFKICVAELI [MRPL28_Y230_Y230C]

>  <phosphorylation enrichment>
0.469

$$$$
>  <Sequence Code>
NNHGNYIVLLG [ETFDH_Y172_R175L]

>  <phosphorylation enrichment>
1.66

$$$$
>  <Sequence Code>
QPGTDYKIYRY [FN1_Y1970_L1974R]

>  <phosphorylation enrichment>
0.499

$$$$
>  <Sequence Code>
AEYGLYRAMVR [VSX2_Y222_G223R]

>  <phosphorylation enrichment>
2.38

$$$$
>  <Sequence Code>
EPAVLYNLKER [MYH7_Y103_D107E]

>  <phosphorylation enrichment>
0.388

$$$$
>  <Sequence Code>
KPSLKYVTYGN [GALNTL5_Y404_G401S]

>  <phosphorylation enrichment>
0.348

$$$$
>  <Sequence Code>
SSAAGYACLAY [MVD_Y131]

>  <phosphorylation enrichment>
0.498

$$$$
>  <Sequence Code>
NTQRPHFKGGG [TYROBP_Y111_Y111H_YF]

>  <phosphorylation enrichment>
0.353

$$$$
>  <Sequence Code>
FFSSEYHCVGG [CTSC_Y345_Y347C_YF]

>  <phosphorylation enrichment>
0.651

$$$$
>  <Sequence Code>
RRFVFYFSFLL [PTEN_Y177_YF]

>  <phosphorylation enrichment>
0.593

$$$$
